# PROTOCOL_TEXT: HNO production determined via N2O quantification (GC headspace analysis)
# Assay type: physicochemical
# RECORDED_CONDITIONS: PBS, 37° C., 90 minutes incubation
# binarize Relative N2O Yield (90 minutes incubation): threshold 80% inclusive, high side Satisfied, low side Not satisfied

Study these solved cases before continuing.
compound="O=S(=O)(NO)c1cc(CO)ccc1Cl [Compound 10]" discrete_label=Satisfied
compound="CCOC(=O)c1coc(S(=O)(=O)NO)c1 [Compound 78]" discrete_label=Satisfied
compound="CN1CCc2cc(Cl)c(S(=O)(=O)NO)cc21 [Compound 65]" discrete_label="Not satisfied"
compound="Cc1cc(S(=O)(=O)NO)c(C)o1 [Compound 70]" discrete_label="Not satisfied"

Here is another compound to look at.
*Q* # bool: Relative N2O Yield (90 minutes incubation) of Cc1ccc(S(=O)(=O)NO)s1 [Compound 84] >= 80%
*A* Not satisfied
